# experiment: Protein binding in mouse plasma
# Format: ADME, cell-free
# stated.conditions: read-out: PB (converted)
assay.endpoint: fraction unbound
Please respond with just the number, no unit label.

Value of fraction unbound reported for the molecule `Cc1ccc(NC(=O)c2cccc(C(F)(F)F)c2C)cc1C(=O)Nc1cnc(Nc2ccc(N3CCN(C)CC3)cc2)nc1` is 0.016

Looking up `Cc1ccc(NC(=O)c2cc(F)cc(C(F)(F)F)c2)cc1C(=O)Nc1cnc(Nc2ccc(N3CCN(C)CC3)cc2)nc1` , I see its fraction unbound listed as 0.018

fraction unbound reported for this molecule `Cc1ccc(NC(=O)c2ccc3c(c2)OC(F)(F)O3)cc1C(=O)Nc1cnc(Nc2ccc(N3CCN(C)CC3)cc2)nc1` : 0.019

Data point: `Cc1ccc(NC(=O)c2cccc(C(F)(F)F)c2)cc1C(=O)Nc1cnc(Nc2ccc(N3CCN(C)CC3)cc2)nc1` ; fraction unbound = 0.022

The reported fraction unbound of the molecule `COc1cc(OC)cc(C(=O)Nc2ccc(C)c(C(=O)Nc3cnc(Nc4ccc(N5CCN(C)CC5)cc4)nc3)c2)c1` was 0.012

----------
So I've got a bunch of molecules here, and I need their IC50 values.

With UniProtKB Q02763 as the test system, `Cc1ccc(NC(=O)c2cccc(C(F)(F)F)c2)cc1C(=O)Nc1cnc(NCCN2CCOCC2)nc1` showed IC50 of > 25 µM

Tested system UniProtKB Q02763; IC50 recorded for `Cc1ccc(NC(=O)c2cccc(C(F)(F)F)c2C)cc1C(=O)Nc1cnc(Nc2ccc(N3CCN(C)CC3)cc2)nc1` was > 8.3 µM

IC50 on UniProtKB Q02763 for `Cc1ccc(NC(=O)c2cccc(C(F)(F)F)c2)cc1C(=O)Nc1cnc(Nc2ccc(N3CCN(C)CC3)cc2)nc1` is 9.95 µM

Item `Cc1ccc(NC(=O)c2ccccc2)cc1C(=O)Nc1cnc(Nc2ccc(N3CCN(C)CC3)cc2)nc1` ; assay system UniProtKB Q02763; IC50 reported as > 25 µM

Here `CN1CCN(c2ccc(Nc3ncc(NC(=O)c4c(Cl)cccc4Cl)cn3)cc2)CC1` was tested on UniProtKB Q02763, and its IC50 came to > 25 µM

The molecule `Cc1ccc(NC(=O)c2cccc(C(F)(F)F)c2)cc1-c1ccc2nc(N)ncc2c1` on UniProtKB Q02763: IC50 was 0.021 µM

// IC50 (UniProtKB Q02763) for `CC(=O)Nc1ccc(C)c(C(=O)Nc2cnc(Nc3ccc(N4CCN(C)CC4)cc3)nc2)c1` = > 25 µM

Log: UniProtKB Q02763, molecule `COc1cc(OC)cc(C(=O)Nc2ccc(C)c(C(=O)Nc3cnc(Nc4ccc(N5CCN(C)CC5)cc4)nc3)c2)c1` , IC50 = > 8.3 µM

----------
assay.endpoint: IC50

Param item: `Cc1ccc(NC(=O)c2cccc(C(F)(F)F)c2)cc1C(=O)Nc1cnc(Nc2ccc(N3CCN(C)CC3)cc2)nc1` ; param system: Ribosomal protein S6 kinase beta-1 (Homo sapiens); output IC50: > 100 µM

----------
Field: pIC50. Provide a value for each of the compounds that follow.
Please keep in mind that pIC50 is minus log10 of the molar concentration; only the number is needed.

Vascular endothelial growth factor receptor 2 (Homo sapiens) assay, compound `Cc1ccc(NC(=O)c2cc(F)cc(C(F)(F)F)c2)cc1C(=O)Nc1cnc(Nc2ccc(N3CCN(C)CC3)cc2)nc1` , recorded pIC50 = 7.77

Measured pIC50 (Vascular endothelial growth factor receptor 2 (Homo sapiens)), entry `Cc1ccc(NC(=O)c2cccc(C(F)(F)F)c2)cc1-c1ccc2nc(N)ncc2c1` : 8.22

Bench note, Vascular endothelial growth factor receptor 2 (Homo sapiens): `COc1ccccc1C(=O)Nc1ccc(C)c(C(=O)Nc2cnc(Nc3ccc(N4CCN(C)CC4)cc3)nc2)c1` , pIC50 reads 5.95

Vascular endothelial growth factor receptor 2 (Homo sapiens) pIC50 of `Cc1ccc(NC(=O)Nc2cccc(C(F)(F)F)c2)cc1C(=O)Nc1cnc(Nc2ccc(N3CCN(C)CC3)cc2)nc1` is 7.39

Vascular endothelial growth factor receptor 2 (Homo sapiens) pIC50 of `Cc1ccc(C(=O)Nc2cccc(C(F)(F)F)c2)cc1C(=O)Nc1cnc(N)nc1` is 6.69

Vascular endothelial growth factor receptor 2 (Homo sapiens) assay, compound `Cc1ccc(NC(=O)c2cccc(C(F)(F)F)c2)cc1C(=O)Nc1cnc(Nc2ccc(N3CCN(C)CC3)cc2)nc1` , recorded pIC50 = 7.62

# `Cc1ccc(NC(=O)Nc2cccc(C(F)(F)F)c2)cc1-c1ccc2nc(N)ncc2c1` with Vascular endothelial growth factor receptor 2 (Homo sapiens): pIC50 is 6.77

Measured pIC50 (Vascular endothelial growth factor receptor 2 (Homo sapiens)), entry `Cc1ccc(NC(=O)Nc2cccc(C(F)(F)F)c2)cc1C(=O)Nc1cnc(N)nc1` : 6.23

Note to self: pIC50 of `Cc1ccc(NC(=O)c2ccc3c(c2)OC(F)(F)O3)cc1C(=O)Nc1cnc(Nc2ccc(N3CCN(C)CC3)cc2)nc1` with Vascular endothelial growth factor receptor 2 (Homo sapiens) was 6.57

Field pIC50 (Vascular endothelial growth factor receptor 2 (Homo sapiens)), entry `Cc1ccc(NC(=O)c2cnoc2C)cc1C(=O)Nc1cnc(Nc2ccc(N3CCN(C)CC3)cc2)nc1` : 5.42

// compound `Cc1ccc(C(=O)Nc2cccc(C(F)(F)F)c2)cc1C(=O)Nc1cnc(Nc2ccc(N3CCN(C)CC3)cc2)nc1` , assay Vascular endothelial growth factor receptor 2 (Homo sapiens), pIC50 value: 8.30

Field pIC50 (system: Vascular endothelial growth factor receptor 2 (Homo sapiens)) for entry `Cc1ccc(NC(=O)c2cccc(C(F)(F)F)c2)cc1C(=O)Nc1cnc(N)nc1` = 6.90

The compound `CN1CCN(c2ccc(Nc3ncc(NC(=O)c4cc(NC(=O)c5ccc6c(c5)OC(F)(F)O6)ccc4Cl)cn3)cc2)CC1` , when measured on Vascular endothelial growth factor receptor 2 (Homo sapiens), yielded pIC50 of 7.89
